These data points were gathered from patent US9796742B2.

- Tested on: PBMCs
- test summary: LPS-induced TNFα/IL-8 release in PBMC cells
- Format: cell-based
- condition context: Homo sapiens, LPS-stimulated PBMCs, IL-8, read-out: IC50 Values for Inhibition of Cytokine Release, PBMCs IL-8
Exercise: for every item that follows, state its recorded pIC50.
Numbers only, as −log10 of the molar value.

Known pIC50 results, listed for orientation:
CC(C)(C)c1cc(NC(=O)Nc2ccc(Oc3ccnc(Nc4ccc(SCCO)cc4)n3)c3ccccc23)n(-c2ccc(P(C)(C)=O)cc2)n1 ... 8.14
CC(C)(C)c1cc(NC(=O)Nc2ccc(Oc3ccnc(NCCCO)n3)c3ccccc23)n(-c2ccc(P(C)(C)=O)cc2)n1 ... 7.04

We now examine a further molecule.
Query block: // pIC50 lookup, key: CC(C)(C)c1cc(NC(=O)Nc2ccc(Oc3ccnc(Nc4ccc(S(F)(F)(F)(F)F)cc4)n3)c3ccccc23)n(-c2ccc(P(C)(C)=O)cc2)n1
Result block: 6.67
